Data credit: ChEMBL document CHEMBL1155750

- PROTOCOL_NOTES: Toxicity in brine shrimp
- Type: organism-based
- COND: artemia, in vivo
READOUT_TYPE: LC50 (µg/mL)

- COc1cc2ccc(=O)oc2cc1OC/C=C(\C)CC/C=C(/C)CO [ARTEKEISKEANOL B]: 70
- COc1cc2ccc(=O)oc2cc1OC/C=C(\C)CC/C=C(\C)CO [ARTEKEISKEANOL A]: 60
